experiment: In vivo RA transferability test (HPLC-ECD of plasma and brain); set-up: species or system C57BL/6 J mice; details: C57BL/6 J, mouse, plasma, oral, 0.5 % (fed), mice fed 0.5% RA for 7 weeks; β-glucuronidase not reacted; mean ± S.E. (n = 5)
measuredAttribute: concentration at 7 weeks
Hi, when you answer, please include the unit after the number. Thanks!

stdin: Which concentration at 7 weeks is reported for this molecule? `O=C(/C=C/c1ccc(O)c(O)c1)O[C@H](Cc1ccc(O)c(O)c1)C(=O)O`
stdout: 590 nM

###

Experiment: In vivo RA transferability test (HPLC-ECD of plasma and brain)
Parameters: species or system C57BL/6 J mice
Conditions: C57BL/6 J, mouse, plasma, oral, 0.5 % (fed), mice fed 0.5% RA for 7 weeks; β-glucuronidase reacted; mean ± S.E. (n = 5)
Experimental: The blood and whole brain were collected under isoflurane anesthesia after 7 weeks of breeding (C and RA group). The blood samples were centrifuged at 1,800 × g at 4 °C for 10 min to obtain EDTA plasma. Phosphate-buffered saline (PBS) (1 mL/0.1 g of brain tissue) was added to the brain tissue sample and homogenized with a Polytron homogenizer. After that, the samples were centrifuged at 4,000 × g at 4 °C for 40 min to obtain the brain extract supernatant. […]
measuredAttribute: concentration at 7 weeks (nM)
Value expressed in nM; do not type the unit.

stdin: Consider the compound `O=C(/C=C/c1ccc(O)c(O)c1)O[C@H](Cc1ccc(O)c(O)c1)C(=O)O` and give its measured concentration at 7 weeks.
stdout: 750

Origin of values: paper PMC6581955
